In this section we review reported TGI values for a set of compounds.
Test system: SNB-19 CNS
Test: NCI tumour cell line growth inhibition, 48 h

{"columns": ["compound", "TGI"],
 "data": [
  ["C/C(=N/NC(=O)c1ccccc1Nc1ccccc1C(=O)N/N=C(\\C)c1ccc(C)cc1)c1ccc(C)cc1", "> 100 µM"],
  ["NC(=O)c1ccc(S(=O)(=NS(=O)(=O)c2ccccc2)c2ccc(C(N)=O)cc2)cc1", "> 100 µM"],
  ["NC(=S)c1cn(C2OC(CO)C(O)C2O)c2ncnc(N)c12 (centres undefined)", "13.7 µM"],
  ["CN1CCN(C2CC(=O)c3c(Cl)sc(Cl)c32)CC1 (centres undefined)", "> 100 µM"],
  ["COc1cc(C)c(S(=O)(=O)N(CCCN)OCCCN)c(C)c1C", "> 100 µM"],
  ["C[C@@H]1CC[C@H]2C(CN(C)CC3=C(C(F)(F)F)O[C@@H]4O[C@@]5(C)CC[C@H]6[C@H](C)CC[C@@H]3[C@@]46OO5)=C(C(F)(F)F)O[C@@H]3O[C@@]4(C)CC[C@@H]1[C@]32OO4", "> 100 µM"],
  ["CCOC(=O)CCC1(C(=O)O[C@@H]2C[C@H](C)CC[C@H]2C(C)C)CCCCC1=O (some centres undefined)", "> 100 µM"],
  ["O=C(CN1CCN(c2cc3c(cc2F)c(=O)c(C(=O)O)cn3C2CC2)CC1)Nc1ccc(C(=O)/C=C/c2ccccc2)cc1", "> 100 µM"],
  ["COc1ccc(-c2nc3ncccn3c2-c2ccc(S(C)(=O)=O)cc2)cc1", "> 100 µM"]
]}

----------
Test system: HOP-92 NSCLC
Assay: NCI tumour cell line growth inhibition, 48 h
The following molecules are listed with their measured TGI values.

{"columns": ["molecule", "unit name", "limit sign", "TGI"],
 "data": [
  ["Oc1[nH]c2ccccc2c1N=NC(=S)NCc1ccccn1", "µM", "=", 18.1],
  ["CC(NC1=NCCO1)c1ccco1 (stereo not drawn)", "µM", ">", 100],
  ["CCN(CC)CCn1nc2c3c(cccc3c1=O)-c1ccccc1-2", "µM", "=", 24.9],
  ["O=c1[nH]c(=O)c2c([nH]1)[nH]c1ccccc12", "µM", ">", 100],
  ["Cc1cccc2c1C(=O)/C(=C/c1ccccc1C(=O)O)C2", "µM", ">", 100],
  ["COc1ccc(C2=C(N)c3cc(OC)ccc3C2=O)cc1", "µM", ">", 100],
  ["COc1cc(C2CC(c3cc(Cl)c(C)cc3O)=NN2c2ccc(S(N)(=O)=O)cc2)cc(OC)c1OC (stereo not drawn)", "µM", "=", 6.99],
  ["O=C(CSCC(=O)N/N=C\\c1cccc(Br)c1)N/N=C\\c1cccc(Br)c1", "µM", "=", 47],
  ["O=C1/C(=C/Cc2ccco2)N=C(c2ccccc2)N1c1nc2c(Cl)cc(Cl)cc2s1", "µM", "=", 87.4],
  ["COC1OC(=O)C(OC)C(OC)C1OC (stereo not drawn)", "µM", ">", 100],
  ["C/C(=C\\c1ccccc1)n1c(=O)cc(C)n1C", "µM", ">", 100],
  ["Cc1cnc2[nH]c(-c3sccc3C)cc(=O)c2c1", "µM", ">", 100],
  ["COC(=O)C([O][Ge]([CH3])([CH3])[CH3])c1ccccc1 (stereo not drawn)", "µM", ">", 100],
  ["C/C(=N/NC(=O)c1ccccc1Nc1ccccc1C(=O)N/N=C(\\C)c1ccc(C)cc1)c1ccc(C)cc1", "µM", ">", 100],
  ["CCCCOc1nc2ccccc2cc1C1CNC(=O)c2ccccc2N1 (stereo not drawn)", "µM", "=", 26.6],
  ["CCOc1c(Cc2ccccc2)c(=O)n2c3ccccc3n3c(=O)n(C)c(=O)c1c23", "µM", ">", 100],
  ["CCC[CH2][Sn]1([CH2]CCC)[O]N=Cc2ccccc2[O]1", "µM", "=", 2.49],
  ["C[S+](C)C1(c2ccccc2)C(=O)c2ccccc2C1=O", "µM", ">", 100],
  ["O=C(O)CSc1nnc(COc2ccccc2)n1-c1ccccc1", "µM", ">", 100],
  ["c1ccc(-c2nn(-c3ccccc3)[n+](-c3ccccc3-c3ccccc3)n2)cc1", "µM", "=", 5.48],
  ["Cn1ccnc1C(=O)/C=C/c1ccc(CC(=O)Nc2cc(F)c(F)c(F)c2)cc1", "µM", "=", 7.44],
  ["COc1ccc(CN[C@H]2CCc3cc(OC)c(OC)c(OC)c3-c3ccc(SC)c(=O)cc32)c(OC)c1OC", "µM", "=", 77.2],
  ["C/C(=N\\Nc1nc2ccccc2n1C)c1ccncn1", "µM", "=", 2.64]
]}
